Each record here notes measured CC50.
system: uninfected SupT1 cells; assay: Compound-induced toxicity, XTT cell viability assay; settings: read-out: CC50 (concentration reducing cell viability by 50%), XTT method, 48 h, Tables 3 and 4

Cc1ccccc1CCC(=O)N(C)c1nc2c(s1)CCCC2: > 125 µM

Exam item: Could you share which CC50 value was measured for CC1(C)Cc2cccc(CCC(=O)Nc3nc4ccccc4s3)c2O1 ?
Marked response: > 100 µM

----------
test system: downmodulation of MHC-I molecules expressed on the surface of HIV infected SupT1 cells; assay: cells; conditions: Human immunodeficiency virus 1, SUP-T1, read-out: EC50 for inhibition of MHC-I downmodulation utilizing the R1 parameter
measureName: EC50 (nM)
Give the quantity in nM, number only.

Here are 5 molecules together with their reported answers.
Cc1cnc(NC(=O)COc2cccc3c2OC(C)(C)C3)s1: 370
CN(C(=O)COc1cccc2[nH]ccc12)c1nc2c(s1)CCCC2: 180
Cc1csc(N(C(=O)COc2cccc3c2OC(C)(C)C3)c2ccncc2)n1: 950
CC1(C)Cc2cccc(OCC(=O)Nc3ccc(Br)cn3)c2O1: 3400
CC1(C)Cc2cccc(OCC(=O)N(Cc3ccc[nH]3)c3nc4c(s3)CCCC4)c2O1: 15

Exam item: Record request: EC50 value, item COc1c(C)cccc1OCC(=O)N(C)c1nc2c(s1)CCCC2
Marked response: 780

Exam item: Could you tell me which EC50 is on file for CC1(C)Cc2cccc(OCC(=O)Nc3nc4c(C#N)cccc4s3)c2O1 ?
Marked response: 70

Exam item: What value of EC50 has been reported for the following molecule? Cc1csc(N(C(=O)COc2cccc3c2OC(C)(C)C3)c2ccccc2Cl)n1
Marked response: 2170

----------
test: in vitro; settings: human, uninfected SupT1 cells
List of CC50 values.

CC1(C)Cc2cccc(OCC(=O)Nc3nc4c(-c5ccc[nH]5)cccc4s3)c2O1: > 100 µM
C=CCN(C(=O)COc1cccc2c1OC(C)(C)C2)c1nc2c(s1)CCCC2: > 125 µM
Cc1csc(N(C(=O)COc2cccc3c2OC(C)(C)C3)c2ccncn2)n1: > 125 µM

Exam item: What measured CC50 goes with CC1(C)Cc2cccc(OCC(=O)Nc3nc(C(=O)NCc4ccco4)cs3)c2O1 ?
Marked response: > 100 µM

Exam item: Can you look up the measured CC50 of CC1(C)Cc2cccc(OCC(=O)Nc3nc(C(=O)N4CC[C@H](CO)C4)cs3)c2O1 for me?
Marked response: > 90 µM

Exam item: I am curious: what CC50 value has been reported for COc1ccccc1OCC(=O)Nc1nc2c(C)cccc2s1 ?
Marked response: > 100 µM

Exam item: What does the data say about its CC50? Entry: CC1(C)Cc2cccc(OCC(=O)Nc3nc(C(=O)N4CCCC4)cs3)c2O1
Marked response: > 90 µM

Exam item: Need CC50, item CN(C(=O)COc1cccc2c1OC(C)(C)C2)c1ccc(Cl)nn1
Marked response: > 125 µM

Exam item: Given the molecule Cc1nc(NC(=O)C(C)(C)Oc2cccc3c2OC(C)(C)C3)sc1C , what is its reported CC50?
Marked response: > 90 µM

Exam item: Bench note: what CC50 did Cc1nc(NC(=O)COc2cccc3c2OC(C)(C)C3)ccc1C#N show?
Marked response: > 125 µM

Exam item: Need CC50 of Cc1nc(NC(=O)COc2cc(C(F)(F)F)cc3c2OC(C)(C)C3)ccc1C1CC1 , thanks.
Marked response: > 125 µM

These data points were gathered from patent US20220411419A1.
